# system_tested: Neuropeptides B/W receptor type 1 (Homo sapiens)
# method_notes: GPR7 antagonists, late-stage follow-up, cell-based, fluorescence, dose response, set 3 (AID 540365); call rule not given here
# reported_conditions: GPR7-expressing cells, fluorescence antagonist read-out; run 1
The categories you may choose from are Yes = active, No = inactive

Reference set (5 entries):
> print(dat)
                                   compound  group
1  CCOc1ccc(Oc2c(Cl)c(Br)nn(Cc3cccc4ccccc34)c2=O)cc1    Yes
2  C=Cc1nn(Cc2ccccc2C)c(=O)c(Oc2ccc(OC)cc2)c1C=C    Yes
3  COc1ccc(Oc2c(Br)cnn(Cc3cccc4ccccc34)c2=O)cc1    Yes
4  COc1ccc(Oc2c(Cl)cnn(Cc3cccc4cnccc34)c2=O)cc1    Yes
5  COc1ccc(Oc2c(Cl)cnn(Cc3c(F)cccc3F)c2=O)cc1    Yes

What was the test verdict on CCOc1ccc(Oc2c(Cl)cnn(C3c4ccccc4-c4ccccc43)c2=O)cc1 ?
Yes

----------
# system_tested: Neuropeptides B/W receptor type 1 (Homo sapiens)
# method_notes: GPR7 antagonists, late-stage follow-up, cell-based, fluorescence, dose response, set 3 (AID 540365)
# reported_conditions: GPR7-expressing cells, fluorescence antagonist read-out; run 2
quantity: IC50

Examples with answers:
> print(dat)
                                   molecule                             system.tested  meas.value
1  COc1ccc(Sc2c(Cl)cnn(Cc3cccc4ccccc34)c2=O)cc1  Neuropeptides B/W receptor type 1 (Homo sapiens)     1030 nM
2  CCOc1ccc(Oc2c(S(C)=O)cnn(Cc3cccc4ccccc34)c2=O)cc1 (stereo not drawn)  Neuropeptides B/W receptor type 1 (Homo sapiens)     2130 nM
3  CCOc1ccc(Oc2c(Cl)c(Br)nn(Cc3cccc4ccccc34)c2=O)cc1  Neuropeptides B/W receptor type 1 (Homo sapiens)      237 nM
4  COc1ccc(Oc2c(Cl)cnn(Cc3cccc4cnccc34)c2=O)cc1  Neuropeptides B/W receptor type 1 (Homo sapiens)     4100 nM
5  COc1ccc(Oc2c(Cl)cnn(Cc3c(F)cccc3F)c2=O)cc1  Neuropeptides B/W receptor type 1 (Homo sapiens)      726 nM
6  COc1ccc(Oc2c(C#N)cnn(Cc3cccc4ccccc34)c2=O)cc1  Neuropeptides B/W receptor type 1 (Homo sapiens)     1690 nM
7  C=Cc1nn(Cc2ccccc2C)c(=O)c(Oc2ccc(OC)cc2)c1C=C  Neuropeptides B/W receptor type 1 (Homo sapiens)      808 nM

Okay, next one:
Bench note: what IC50 did COc1ccc(Oc2c(Cl)cnn(Cc3ccc4ccccc4c3)c2=O)cc1 show?
1950 nM

----------
# system_tested: Neuropeptides B/W receptor type 1 (Homo sapiens) (UniProt P48145)
# method_notes: GPR7 antagonists, late-stage follow-up, cell-based, fluorescence, dose response, set 3 (AID 540365)
# reported_conditions: GPR7-expressing cells, fluorescence antagonist read-out; run 1
Active and inactive are the calls of the source. How the calls were made is not given here.
Select the matching outcome among class 1 for active, class 0 for inactive

# count of solved cases: 2
> print(dat)
                                   molecule    group
1  COc1ccc(Oc2c(Cl)c(C#N)nn(Cc3ccccc3C)c2=O)cc1  class 1
2  COc1ccc(Oc2c(Cl)cnn(Cc3ccc4ccccc4c3)c2=O)cc1  class 1

// outcome(item) with item = COc1ccc(Sc2c(Cl)cnn(Cc3cccc4ccccc34)c2=O)cc1
class 1

Please do the same for CCCOc1ccc(Oc2c(Cl)cnn(C3c4ccccc4-c4ccccc43)c2=O)cc1 as well.
class 0

Record: CCOc1ccc(Oc2c(S(C)=O)cnn(Cc3cccc4ccccc34)c2=O)cc1 (stereo unspecified)
class 1

Moving on to the next molecule: CCCOc1ccc(Oc2c(Cl)cnn(Cc3cccc4ccccc34)c2=O)cc1
class 1
